Target: T1, recombinant human activated Factor VII (FVIIa) (human, UniProt P08709 61-212; P08709 213-466, ten glutamate residues of the Gla domain may be gamma-carboxylated)
T1 construct: chains tethered by a disulfide bond; also called Factor VIIa; rFVIIa
T1 sequence 1: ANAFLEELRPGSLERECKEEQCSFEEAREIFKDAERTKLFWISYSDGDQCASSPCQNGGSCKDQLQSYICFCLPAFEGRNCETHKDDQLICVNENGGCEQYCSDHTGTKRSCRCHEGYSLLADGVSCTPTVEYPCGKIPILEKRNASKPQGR
T1 sequence 2: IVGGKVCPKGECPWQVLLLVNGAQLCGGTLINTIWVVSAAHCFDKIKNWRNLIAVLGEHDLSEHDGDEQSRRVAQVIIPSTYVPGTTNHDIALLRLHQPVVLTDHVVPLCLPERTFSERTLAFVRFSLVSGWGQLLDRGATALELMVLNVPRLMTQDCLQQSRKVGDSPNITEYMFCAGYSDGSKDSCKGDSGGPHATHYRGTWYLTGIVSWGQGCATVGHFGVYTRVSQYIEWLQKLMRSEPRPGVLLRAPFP
Test: BLI (Fortebio)
Observation Type: pKd
pKd field: float, defined as -log10 of concentration (mol/L).

Worked cases, answers included:
[
  {
    "Binder": "VH SEQ ID NO 554 / VL SEQ ID NO 454 (antibody, IgG4, V domains shown, humanized 11F2; IgG4 S228P/kappa) VH: QVQLQESGPGLVKPSDTLSLTCAVSGYSISSDSAWSWIRQFPGKGLEWIGYIQYSGSTNYNPSLKSRVTMSVDTSKNQFSLKLSSVTALDTAVYYCARSVNYYGNSFAVGPWGQGTLVTVSS VL: EIVLTQSPATLSLSPGERATLSCRASQGVSDYLHWYQQKPGEAPRLLIKYASQPATGIPARFSGSGSGTDFTLTISSLEPEDFAVYYCQNGHSFPLTFGQGTKLEIK",
    "Reported": 7.72
  },
  {
    "Binder": "VH SEQ ID NO 562 / VL SEQ ID NO 350 (antibody, IgG4, V domains shown, humanized 11F2; IgG4 S228P/kappa) VH: QVQLQESGPGLVKPSDTLSLTCAVSGYSISSDSAWSWIRQPPGKGLEWIGYIQYSGSTNYNPSLKSRVTMSRDTSKNQFSLKLSSVTALDTAVYYCARSVNYYGNSFAVGPWGQGTLVTVSS VL: EIVLTQSPATLSLSPGERATLSCRASQGISDYLHWYQQKPGQAPRLLIKYTSQPATGIPARFSGSGSGTDFTLTISSLEPEDFAVYYCQNGHSFPLTFGAGTKLELK",
    "Reported": 9.03
  },
  {
    "Binder": "VH SEQ ID NO 562 / VL SEQ ID NO 478 (antibody, IgG4, V domains shown, humanized 11F2; IgG4 S228P/kappa) VH: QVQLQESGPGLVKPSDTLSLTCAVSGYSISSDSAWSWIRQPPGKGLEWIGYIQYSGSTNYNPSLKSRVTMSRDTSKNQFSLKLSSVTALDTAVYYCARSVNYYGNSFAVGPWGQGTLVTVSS VL: EIVLTQSPATLSLSPGERATLSCRASQGVSDYLHWYQQKPGQAPRLLIKYASQPATGIPARFSGSGSGTDFTLTISSLEPEDFAVYYCQQGHSFPLTFGQGTKLEIK",
    "Reported": 8.59
  },
  {
    "Binder": "VH SEQ ID NO 642 / VL SEQ ID NO 470 (antibody, IgG4, V domains shown, humanized 11F2; IgG4 S228P/kappa) VH: QVQLQESGPGLVKPSQTLSLTCTVSGYSISSDSAWSWIRQPPGKGLEWIGYIYYSGSTNYNPSLKSRVTISVDTSKNQFSLKLSSVTAADTAVYYCARSVNYYGNSFAVGYWGQGTSVTVSS VL: EIVLTQSPATLSLSPGERATLSCRASQGVSDYLHWYQQKPGQAPRLLIKYASQPATGIPARFSGSGSGTDFTLTISSLEPEDFAVYYCQNGHSFPLTFGQGTKLEIK",
    "Reported": 7.33
  }
]

Q) Need pKd of VH SEQ ID NO 570 / VL SEQ ID NO 502 (antibody, IgG4, V domains shown, humanized 11F2; IgG4 S228P/kappa) VH: QVQLQESGPGLVKPSDTLSLTCAVSGYSISSDSAWSWIRQPPGKGLEWIGYIQYSGSTNYNPSLKSRVTMSRDTSKNQFSLKLSSVTAADTAVYYCARSVNYYGNSFAVGPWGQGTLVTVSS VL: EIVLTQSPATLSLSPGERATLSCRASQGVSDYLHWYQQKPGQAPRLLIKYTSQPATGIPARFSGSGSGTDFTLTISSLEPEDFAVYYCQNGHSFPLTFGQGTKLEIK , thanks.
A) 9.04
